# assay.target: T1, mouse VTCN1 protein (Mus musculus, UniProt Q7TSP5)
# T1 construct: His
# T1 sequence (Q7TSP5 25-257): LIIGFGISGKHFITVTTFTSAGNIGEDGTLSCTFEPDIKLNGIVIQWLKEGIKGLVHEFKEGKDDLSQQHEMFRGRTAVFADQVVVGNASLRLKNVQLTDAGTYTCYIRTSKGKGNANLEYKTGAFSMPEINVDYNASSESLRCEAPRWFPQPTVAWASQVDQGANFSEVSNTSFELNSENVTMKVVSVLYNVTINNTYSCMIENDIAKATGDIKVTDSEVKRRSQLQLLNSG
# procedure.text: Affinity by OCTET, mouse VTCN1
# Type: binding
# run.conditions: Table 12
measurement.name: mouse k(on)
Write the number on its own, no unit after it.

q: Item 16H12_60B4: fully human VTCN1 antibody; VH SEQ ID NO: 283, VL SEQ ID NO: 286 (antibody, V domains shown) VH: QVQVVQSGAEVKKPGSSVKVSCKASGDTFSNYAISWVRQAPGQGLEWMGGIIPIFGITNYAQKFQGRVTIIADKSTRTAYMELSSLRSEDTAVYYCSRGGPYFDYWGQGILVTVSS VL: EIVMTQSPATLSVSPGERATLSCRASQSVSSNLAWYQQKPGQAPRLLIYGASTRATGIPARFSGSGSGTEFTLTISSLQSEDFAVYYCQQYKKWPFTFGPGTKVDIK has what recorded mouse k(on)?
a: 1.37E+05
